Test system: Rice plants
assayProcedure: Paddy herbicidal activity test, phytotoxicity to transplanted rice
Format: in vivo
conditionsUsed: 5g a.i./10a; rice transplanted at 2.0 leaf stage; 30 days
metricName: phytotoxicity (growth inhibition rate level) Rice plants

Look at this molecule and give its reported phytotoxicity (growth inhibition rate level) Rice plants. "N#Cc1cnn(-c2nn3c(c2Cl)CCC3)c1NCC1CC1" 1 (1: 10% to less than 20%)

Look at this molecule and give its reported phytotoxicity (growth inhibition rate level) Rice plants. CC(Nc1c(C#N)cnn1-c1nn2c(c1Cl)CCCC2)C1CC1 (stereo not drawn) 1 (1: 10% to less than 20%)

Look at this molecule and give its reported phytotoxicity (growth inhibition rate level) Rice plants. "CC1(CNc2c(C#N)cnn2-c2nn3c(c2Cl)CCCC3)CC1" 1 (1: 10% to less than 20%)

----------
Tested on: Monochoria vaginalis
assayProcedure: Paddy herbicidal activity test
Assay type: in vivo
conditionsUsed: 1g a.i./10a; irrigated paddy pot; 30 days
metricName: herbicidal efficacy (growth inhibition rate level) Monochoria vaginalis

Look at this compound and give its reported herbicidal efficacy (growth inhibition rate level) Monochoria vaginalis. N#Cc1cnn(-c2nn3c(c2Cl)CCCC3)c1NCC1CC1(F)F (centres unmarked) 9 (9: 90% to less than 100%)

Look at this compound and give its reported herbicidal efficacy (growth inhibition rate level) Monochoria vaginalis. "O=[N+]([O-])c1cnn(-c2nn3c(c2Cl)CCCC3)c1NCC1CC1" 7 (7: 70% to less than 80%)

Look at this compound and give its reported herbicidal efficacy (growth inhibition rate level) Monochoria vaginalis. "O=C(N(CC1CC1)c1c([N+](=O)[O-])cnn1-c1nn2c(c1Br)CCCC2)C(F)(F)F" 7 (7: 70% to less than 80%)

Look at this compound and give its reported herbicidal efficacy (growth inhibition rate level) Monochoria vaginalis. CC(Nc1c(C#N)cnn1-c1nn2c(c1Cl)CCCC2)C1CC1 (centres unmarked) 8 (8: 80% to less than 90%)

Look at this compound and give its reported herbicidal efficacy (growth inhibition rate level) Monochoria vaginalis. "N#Cc1cnn(-c2nn3c(c2Cl)CCC3)c1N(CC1CC1)C(=O)C(F)(F)F" 8 (8: 80% to less than 90%)

Look at this compound and give its reported herbicidal efficacy (growth inhibition rate level) Monochoria vaginalis. N#Cc1cnn(-c2nn3c(c2Cl)CCCC3)c1NC1CC1 [Control agent 4.84, reference compound] 2 (2: 20% to less than 30%)

Look at this compound and give its reported herbicidal efficacy (growth inhibition rate level) Monochoria vaginalis. "N#Cc1cnn(-c2nn3c(c2Cl)CCCC3)c1N(CC1CC1)C(=O)C(F)(F)C(F)(F)F" 7 (7: 70% to less than 80%)

Look at this compound and give its reported herbicidal efficacy (growth inhibition rate level) Monochoria vaginalis. CC(Nc1c(C#N)cnn1-c1nn2c(c1Cl)CCCC2)C1(C)CC1 (centres unmarked) 7 (7: 70% to less than 80%)

Look at this compound and give its reported herbicidal efficacy (growth inhibition rate level) Monochoria vaginalis. "O=C(N(CC1CC1)c1c([N+](=O)[O-])cnn1-c1nn2c(c1Cl)CCCC2)C(F)(F)F" 8 (8: 80% to less than 90%)

Look at this compound and give its reported herbicidal efficacy (growth inhibition rate level) Monochoria vaginalis. "N#Cc1cnn(-c2nn3c(c2Cl)CCCC3)c1NC(C1CC1)C1CC1" 8 (8: 80% to less than 90%)

Look at this compound and give its reported herbicidal efficacy (growth inhibition rate level) Monochoria vaginalis. "N#Cc1cnn(-c2nn3c(c2Cl)CCCC3)c1NCC1CC1" 8 (8: 80% to less than 90%)

Look at this compound and give its reported herbicidal efficacy (growth inhibition rate level) Monochoria vaginalis. "CC1(CNc2c(C#N)cnn2-c2nn3c(c2Cl)CCCC3)CC1" 9 (9: 90% to less than 100%)

Look at this compound and give its reported herbicidal efficacy (growth inhibition rate level) Monochoria vaginalis. "N#Cc1cnn(-c2nn3c(c2Br)CCCC3)c1N(CC1CC1)C(=O)C(F)(F)F" 7 (7: 70% to less than 80%)

Look at this compound and give its reported herbicidal efficacy (growth inhibition rate level) Monochoria vaginalis. N#Cc1cnn(-c2nn3c(c2Cl)CCCC3)c1N(CC1CC1(F)F)C(=O)C(F)(F)F (centres unmarked) 9 (9: 90% to less than 100%)

Look at this compound and give its reported herbicidal efficacy (growth inhibition rate level) Monochoria vaginalis. CC1CC1CN(C(=O)C(F)(F)F)c1c(C#N)cnn1-c1nn2c(c1Cl)CCCC2 (centres unmarked) 8 (8: 80% to less than 90%)

Look at this compound and give its reported herbicidal efficacy (growth inhibition rate level) Monochoria vaginalis. "N#Cc1cnn(-c2nn3c(c2Br)CCCC3)c1NCC1CC1" 7 (7: 70% to less than 80%)

----------
Test system: Rice plants
assayProcedure: Paddy herbicidal activity test, phytotoxicity to transplanted rice
Assay type: in vivo
conditionsUsed: 1g a.i./10a; rice transplanted at 2.0 leaf stage; 30 days
metricName: phytotoxicity (growth inhibition rate level) Rice plants

Look at this compound and give its reported phytotoxicity (growth inhibition rate level) Rice plants. N#Cc1cnn(-c2nn3c(c2Cl)CCCC3)c1NCC1CO1 (stereo not drawn) [Control agent 4.129, reference compound] 1 (1: 10% to less than 20%)

----------
System: Monochoria vaginalis
assayProcedure: Paddy herbicidal activity test
Assay type: in vivo
conditionsUsed: 5g a.i./10a; irrigated paddy pot; 30 days
Answer each item with its documented herbicidal efficacy (growth inhibition rate level) Monochoria vaginalis.

Look at this molecule and give its reported herbicidal efficacy (growth inhibition rate level) Monochoria vaginalis. "O=[N+]([O-])c1cnn(-c2nn3c(c2Br)CCCC3)c1NCC1CC1" 7 (7: 70% to less than 80%)

Look at this molecule and give its reported herbicidal efficacy (growth inhibition rate level) Monochoria vaginalis. N#Cc1cnn(-c2nn3c(c2Cl)CCCC3)c1N(CC1CC1(F)F)C(=O)C(F)(F)F (stereo not shown) 9 (9: 90% to less than 100%)

Look at this molecule and give its reported herbicidal efficacy (growth inhibition rate level) Monochoria vaginalis. CC(C1CC1)N(C(=O)C(F)(F)F)c1c(C#N)cnn1-c1nn2c(c1Cl)CCCC2 (stereo not shown) 7 (7: 70% to less than 80%)

Look at this molecule and give its reported herbicidal efficacy (growth inhibition rate level) Monochoria vaginalis. N#Cc1cnn(-c2nn3c(c2Cl)CCCC3)c1NC1CC1 [Control agent 4.84, reference compound] 3 (3: 30% to less than 40%)

Look at this molecule and give its reported herbicidal efficacy (growth inhibition rate level) Monochoria vaginalis. "N#Cc1cnn(-c2nn3c(c2Cl)CCCC3)c1NC(C1CC1)C1CC1" 9 (9: 90% to less than 100%)

Look at this molecule and give its reported herbicidal efficacy (growth inhibition rate level) Monochoria vaginalis. "N#Cc1cnn(-c2nn3c(c2Cl)CCC3)c1NCC1CC1" 9 (9: 90% to less than 100%)

Look at this molecule and give its reported herbicidal efficacy (growth inhibition rate level) Monochoria vaginalis. "N#Cc1cnn(-c2nn3c(c2Cl)CCC3)c1N(CC1CC1)C(=O)C(F)(F)F" 9 (9: 90% to less than 100%)

Look at this molecule and give its reported herbicidal efficacy (growth inhibition rate level) Monochoria vaginalis. CC(Nc1c(C#N)cnn1-c1nn2c(c1Cl)CCCC2)C1(C)CC1 (stereo not shown) 7 (7: 70% to less than 80%)

Look at this molecule and give its reported herbicidal efficacy (growth inhibition rate level) Monochoria vaginalis. "N#Cc1cnn(-c2nn3c(c2Br)CCCC3)c1NCC1CC1" 8 (8: 80% to less than 90%)

Look at this molecule and give its reported herbicidal efficacy (growth inhibition rate level) Monochoria vaginalis. "CC1(CNc2c(C#N)cnn2-c2nn3c(c2Cl)CCCC3)CC1" 9 (9: 90% to less than 100%)

Look at this molecule and give its reported herbicidal efficacy (growth inhibition rate level) Monochoria vaginalis. "N#Cc1cnn(-c2nn3c(c2Cl)CCCC3)c1N(CC1CC1)C(=O)C(F)(F)C(F)(F)F" 7 (7: 70% to less than 80%)

Look at this molecule and give its reported herbicidal efficacy (growth inhibition rate level) Monochoria vaginalis. "O=C(N(CC1CC1)c1c([N+](=O)[O-])cnn1-c1nn2c(c1Br)CCCC2)C(F)(F)F" 8 (8: 80% to less than 90%)

Look at this molecule and give its reported herbicidal efficacy (growth inhibition rate level) Monochoria vaginalis. "O=C(N(CC1CC1)c1c([N+](=O)[O-])cnn1-c1nn2c(c1Cl)CCCC2)C(F)(F)F" 8 (8: 80% to less than 90%)

Look at this molecule and give its reported herbicidal efficacy (growth inhibition rate level) Monochoria vaginalis. "O=[N+]([O-])c1cnn(-c2nn3c(c2Cl)CCCC3)c1NCC1CC1" 8 (8: 80% to less than 90%)

Look at this molecule and give its reported herbicidal efficacy (growth inhibition rate level) Monochoria vaginalis. CC1CC1CN(C(=O)C(F)(F)F)c1c(C#N)cnn1-c1nn2c(c1Cl)CCCC2 (stereo not shown) 8 (8: 80% to less than 90%)

Look at this molecule and give its reported herbicidal efficacy (growth inhibition rate level) Monochoria vaginalis. CC(Nc1c(C#N)cnn1-c1nn2c(c1Cl)CCCC2)C1CC1 (stereo not shown) 9 (9: 90% to less than 100%)

Look at this molecule and give its reported herbicidal efficacy (growth inhibition rate level) Monochoria vaginalis. "N#Cc1cnn(-c2nn3c(c2Cl)CCCC3)c1NCC1CC1" 8 (8: 80% to less than 90%)

Look at this molecule and give its reported herbicidal efficacy (growth inhibition rate level) Monochoria vaginalis. CC1CC1CNc1c(C#N)cnn1-c1nn2c(c1Cl)CCCC2 (stereo not shown) 9 (9: 90% to less than 100%)

Look at this molecule and give its reported herbicidal efficacy (growth inhibition rate level) Monochoria vaginalis. "N#Cc1cnn(-c2nn3c(c2Br)CCCC3)c1N(CC1CC1)C(=O)C(F)(F)F" 9 (9: 90% to less than 100%)

Look at this molecule and give its reported herbicidal efficacy (growth inhibition rate level) Monochoria vaginalis. N#Cc1cnn(-c2nn3c(c2Cl)CCCC3)c1NCC1CC1(F)F (stereo not shown) 9 (9: 90% to less than 100%)

Look at this molecule and give its reported herbicidal efficacy (growth inhibition rate level) Monochoria vaginalis. "N#Cc1cnn(-c2nn3c(c2Cl)CCCC3)c1N(CC1CC1)C(=O)C(F)(F)F" 9 (9: 90% to less than 100%)
